- experimental-system: Prostaglandin G/H synthase 1 (Ovis aries) (UniProt P05979)
- Sequence (P05979 whole entry): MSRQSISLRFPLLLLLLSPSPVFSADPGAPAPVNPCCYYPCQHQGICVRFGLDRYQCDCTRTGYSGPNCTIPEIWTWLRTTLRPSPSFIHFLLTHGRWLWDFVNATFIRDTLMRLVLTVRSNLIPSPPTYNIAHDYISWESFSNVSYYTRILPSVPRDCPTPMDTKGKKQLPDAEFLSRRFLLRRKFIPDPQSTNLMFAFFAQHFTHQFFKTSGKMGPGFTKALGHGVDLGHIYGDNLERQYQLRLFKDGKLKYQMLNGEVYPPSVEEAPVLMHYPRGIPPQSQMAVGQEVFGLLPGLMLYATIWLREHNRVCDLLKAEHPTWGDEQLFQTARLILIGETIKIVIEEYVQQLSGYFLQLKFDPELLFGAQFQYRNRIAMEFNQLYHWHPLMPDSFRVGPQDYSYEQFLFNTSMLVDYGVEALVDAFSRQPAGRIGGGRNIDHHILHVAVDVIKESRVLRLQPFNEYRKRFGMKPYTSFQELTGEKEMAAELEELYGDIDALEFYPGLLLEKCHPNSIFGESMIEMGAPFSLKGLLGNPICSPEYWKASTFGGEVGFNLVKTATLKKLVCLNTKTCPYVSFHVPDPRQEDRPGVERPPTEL
- protocol-summary: Inhibition of ovine COX1 peroxidase activity assessed as appearance of oxidized N,N,N,N'-tetramethyl-p-phenylenediamine by colorimetric analysis relative to control
- Parameters: concentration or dose not given beside the values
- experimental-setup: concentration not given here
result-type: inhibition (%)

# compound-string, inhibition (%)
measured = [
    ("COc1cc(OC)c(-c2ccnn2C)c(O)c1C(=O)c1ccc(F)cc1F", 55.8),
    ("COc1cc(OC)c(-c2ccnn2C)c(O)c1C(=O)c1cc(Cl)ccc1Cl", 52.4),
    ("COc1cc(OC)c(-c2ccnn2C)c(O)c1C(=O)c1ccccc1F", 58.3),
    ("COc1cc(OC)c(-c2ccnn2C)c(O)c1C(=O)c1ccc(Cl)cc1Cl", 61.7),
    ("COc1cc(OC)c(-c2ccnn2C)c(O)c1C(=O)c1cccc(Br)c1", 59.1),
    ("COc1cc(OC)c(-c2ccnn2C)c(O)c1C(=O)c1cccc(C(F)(F)F)c1", 55.8),
    ("COc1cc(OC)c(-c2ccnn2C)c(O)c1C(=O)c1ccccc1", 57.5),
    ("COc1cc(OC)c(-c2ccnn2C)c(O)c1C(=O)c1cccc(Cl)c1Cl", 58.3),
    ("COc1cc(OC)c(-c2ccnn2C)c(O)c1C(=O)c1cccc(F)c1", 61.7),
    ("COc1ccc(C(=O)c2c(OC)cc(OC)c(-c3ccnn3C)c2O)cc1", 61.4),
]
